pIC50: −log10 of the molar value.
Below are pIC50 values measured for Epidermal growth factor receptor (Homo sapiens, UniProt P00533).
observable: pIC50

COc1ccc(/C(CSc2nc3[nH]c(=O)n(C)c(=O)c3[nH]2)=N\O)cc1 ... 6.15
Cn1c(=O)[nH]c2nc(SC/C(=N/O)c3ccc(Cl)cc3)[nH]c2c1=O ... 6.09

----------
System: MCF7
assay.name: Antiproliferative activity against human MCF7 cells assessed as inhibition of cell proliferation measured after 48 hrs by MTT assay
Format: functional, cell-based
applied.conditions: MCF7, 48 h
observable: IC50 (µM)

CC(=O)c1ccc(NC(=O)CSc2nc3[nH]c(=O)n(C)c(=O)c3[nH]2)cc1 ... 6.1

(A) Cn1c(=O)[nH]c2nc(SC/C(=N/O)c3ccc(Cl)cc3)[nH]c2c1=O
(B) Cn1c(=O)[nH]c2nc(SCC(=O)c3ccc(Cl)cc3)[nH]c2c1=O
(C) Cn1c(=O)[nH]c2nc(SC/C(=N/O)c3ccccc3)[nH]c2c1=O
-- ask Given 3 molecules, produce a descending ranking by IC50. Put the labels in the requested order and write them down.
-- reply B, C, A
(B: 6.3 µM, C: 4.3 µM, A: 1.4 µM)

----------
Test system: MCF7
assay.name: Antiproliferative activity against human MCF7 cells assessed as inhibition of cell proliferation measured after 48 hrs by MTT assay
Format: functional, cell-based
applied.conditions: MCF7, 48 h
observable: IC50 (µM)

# annotated cases, reported IC50 shown
Cn1c(=O)c2[nH]c(SCC(=O)c3ccccc3)nc2n(C)c1=O ... 5.1
Cn1c(=O)[nH]c2nc(SC/C(=N/O)c3ccc(Br)cc3)[nH]c2c1=O ... 1.7

(A) Cn1c(=O)c2[nH]c(SC/C(=N/O)c3ccccc3)nc2n(C)c1=O
(B) Cn1c(=O)[nH]c2nc(SCC(=O)c3ccc(Br)cc3)[nH]c2c1=O
-- ask Could you point out whether the larger IC50 belongs to A or to B ? Reply briefly: the label of your chosen item.
-- reply B

(A) Cn1c(=O)c2[nH]c(SCC(=O)c3ccc(Br)cc3)nc2n(C)c1=O
(B) Cn1c(=O)c2[nH]c(SC/C(=N/O)c3ccc(Cl)cc3)nc2n(C)c1=O
(C) Cn1c(=O)[nH]c2nc(SCC(=O)c3ccccc3)[nH]c2c1=O
(D) COc1ccc(/C(CSc2nc3[nH]c(=O)n(C)c(=O)c3[nH]2)=N\O)cc1
-- ask Arrange items by their IC50 values in increasing order. Put the labels in the requested order and write them down.
-- reply B, D, A, C

(1) COc1ccc(/C(CSc2nc3c([nH]2)c(=O)n(C)c(=O)n3C)=N\O)cc1
(2) CC(=O)c1ccc(NC(=O)CSc2nc3c([nH]2)c(=O)n(C)c(=O)n3C)cc1
(3) Cn1c(=O)c2[nH]c(SC/C(=N/O)c3ccc(Br)cc3)nc2n(C)c1=O
(4) C/C(=N/O)c1ccc(NC(=O)CSc2nc3[nH]c(=O)n(C)c(=O)c3[nH]2)cc1
-- ask Arrange items by their IC50 values in increasing order. Put the labels in the requested order and write them down.
-- reply 1, 3, 2, 4

(1) C/C(=N/O)c1ccc(NC(=O)CSc2nc3c([nH]2)c(=O)n(C)c(=O)n3C)cc1
(2) Cn1c(=O)c2[nH]c(SCC(=O)c3ccc(Cl)cc3)nc2n(C)c1=O
-- ask Could you point out whether the larger IC50 belongs to 1 or to 2 ? Reply briefly: the label of your chosen item.
-- reply 2
(2: 8.4 µM, 1: 5.3 µM)
